System: CCRF-CEM leukemia
Test summary: NCI tumour cell line growth inhibition, 48 h
Measured parameter: TGI

>>> df
                                   compound    measured_target     result
0  Cc1ccccc1/C=C1\CN(C(=O)OC(C)(C)C)C/C(=C\c2ccccc2C)C1=O  CCRF-CEM leukemia    12.6 µM
1  CCC(/C(=N\Nc1c(Cl)cc(Cl)cc1Cl)c1ccccc1)n1ccnc1C (stereo unspecified)  CCRF-CEM leukemia   > 100 µM
2  [N-]=[N+]=NC1=C(c2ccccc2)C(=O)c2cccc3cccc1c23  CCRF-CEM leukemia   > 100 µM
3  c1ccc(C2N3CCCCC3[C@@H]3c4[nH]c5ccccc5c4CCN23)cc1 (stereo partly specified)  CCRF-CEM leukemia   > 100 µM
4  S=C(N/N=C(/c1ccccc1)c1ccccn1)Nc1cccc(Cl)c1  CCRF-CEM leukemia  0.0383 µM
5  COC(=O)C1C2CCCN2OC1(C)CO (stereo unspecified)  CCRF-CEM leukemia   > 100 µM
